This collection of values is drawn from patent US8354399B2.

Molecular target: IGF-1R (Homo sapiens)
Construct: amino acid residues 960-1367 of precursor protein; made in house; host or cells: H5 insect cells (baculovirus; virus generated in Sf21)
Sequence (P08069 960-1367): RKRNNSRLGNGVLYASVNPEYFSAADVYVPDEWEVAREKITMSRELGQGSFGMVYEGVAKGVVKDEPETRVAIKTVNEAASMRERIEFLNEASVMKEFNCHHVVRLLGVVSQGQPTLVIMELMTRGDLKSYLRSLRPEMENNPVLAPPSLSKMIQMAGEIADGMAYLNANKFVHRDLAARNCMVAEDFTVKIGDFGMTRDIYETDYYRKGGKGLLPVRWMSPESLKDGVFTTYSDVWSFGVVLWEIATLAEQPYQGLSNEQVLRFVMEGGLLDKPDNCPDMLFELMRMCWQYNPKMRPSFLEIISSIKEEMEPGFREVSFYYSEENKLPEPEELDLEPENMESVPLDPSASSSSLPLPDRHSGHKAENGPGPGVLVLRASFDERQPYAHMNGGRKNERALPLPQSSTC
Test: Biochemical assay for inhibitors of IGF-1R kinase activity
Reported IC50 values are given for each entry in this list.

>  <compound>
CN1CCN(c2ccc(C(=O)Nc3n[nH]c4ccc(OCc5cc(F)cc(F)c5)cc34)c(NCCF)c2)CC1

>  <unit-descriptor>
µM

>  <qualifier-sign>
=

>  <IC50>
0.2

$$$$
>  <compound>
O=C(Nc1n[nH]c2ccc(OCc3cc(F)cc(F)c3)cc12)c1ccccc1 [Ref. compound, reference compound]

>  <unit-descriptor>
µM

>  <qualifier-sign>
>

>  <IC50>
10

$$$$
>  <compound>
CN1CCN(c2ccc(C(=O)Nc3n[nH]c4ccc(OCc5cc(F)cc(F)c5)cc34)c(NC3CCOCC3)c2)CC1

>  <unit-descriptor>
µM

>  <qualifier-sign>
=

>  <IC50>
0.14

$$$$

====

Reported IC50 values are given for each entry in this list.
Biological target: JAK2 (Homo sapiens, UniProt O60674)
Construct: The assay has been performed using the commercially available JAK2 kinase domain; purchased Invitrogen, Eugene, Oreg
Sequence (O60674 849-1124 limits assumed): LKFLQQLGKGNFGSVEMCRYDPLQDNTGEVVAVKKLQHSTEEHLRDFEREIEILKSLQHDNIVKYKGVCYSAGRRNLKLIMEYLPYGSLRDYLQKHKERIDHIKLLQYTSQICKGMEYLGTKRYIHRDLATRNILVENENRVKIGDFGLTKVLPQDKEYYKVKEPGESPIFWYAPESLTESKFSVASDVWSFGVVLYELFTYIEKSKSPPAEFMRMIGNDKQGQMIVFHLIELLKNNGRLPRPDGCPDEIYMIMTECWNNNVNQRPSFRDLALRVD
Experiment: Biochemical assay for inhibitors of JAK2 kinase activity
endpoint-label: IC50 (µM)

>  <compound>
O=C(Nc1n[nH]c2ccc(OCc3cc(F)cc(F)c3)cc12)c1ccccc1 [Ref. compound, reference compound]

>  <unit-descriptor>
µM

>  <test-result>
0.22

$$$$
>  <compound>
CN1CCN(c2ccc(C(=O)Nc3n[nH]c4ccc(OCc5cc(F)cc(F)c5)cc34)c(NC3CCOCC3)c2)CC1

>  <unit-descriptor>
µM

>  <test-result>
0.02

$$$$
>  <compound>
CN1CCN(c2ccc(C(=O)Nc3n[nH]c4ccc(OCc5cc(F)cc(F)c5)cc34)c(NCCF)c2)CC1

>  <unit-descriptor>
µM

>  <test-result>
0.01

$$$$
